Test system: 299254-011-R-J1-PDC complex spheroids viability
Assay: Anticancer human tumor 299254-011-R-J1-PDC patient-derived melanoma cell line growth inhibition [GQUAD]
Details: second compound 3.16 µM; first compound 0.00999 µM; hits give low values
As shown below, each of these molecules has a reported viability, T/C value.
Response body: numeric value in %, unit text excluded.

Use these answered entries as a reference point.
- Cn1ncnc1[C@H]1c2n[nH]c(=O)c3cc(F)cc(c23)N[C@@H]1c1ccc(F)cc1 + Cc1cnc(CNC(=O)c2c(=O)c3ccc(N4CCCN(C)CC4)nc3n3c2sc2ccccc23)cn1: 68.8
- CCc1c2c(nc3ccc(O)cc13)-c1cc3c(c(=O)n1C2)COC(=O)[C@]3(O)CC + Cc1cnc(CNC(=O)c2c(=O)c3ccc(N4CCCN(C)CC4)nc3n3c2sc2ccccc23)cn1: 64

Attention now shifts to the item below.
Recorded viability, T/C for Cc1[nH]c2ccccc2c1CCNCc1ccc(/C=C/C(=O)NO)cc1 + Cc1[nH]c2ccc(F)cc2c1-c1nc2c3cccnc3c3ncccc3c2[nH]1 , please?
86.6

---

Test system: 299254-011-R-J1-PDC complex spheroids viability
Test: Anticancer human tumor 299254-011-R-J1-PDC cell line growth inhibition [GQUAD]; active means viability on the fitted dose curve at most 10% of control; inactive means the rest;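 further: spheroids exposed to the agents for seven days before readout; percent viability relative to DMSO vehicle control wells = 100%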
Details: second compound 10 µM; first compound 1 µM
Permitted responses: 1 (active), 0 (inactive)

Example entries begin here.
• Nc1ccn(C2OC(CO)C(O)C2(F)F)c(=O)n1 (stereo not given) + Cc1[nH]c2ccc(F)cc2c1-c1nc2c3cccnc3c3ncccc3c2[nH]1 = 0
• CCCS(=O)(=O)Nc1ccc(F)c(C(=O)c2c[nH]c3ncc(-c4ccc(Cl)cc4)cc23)c1F + CN(C)c1ccc(Nc2c3ccc(NC(=O)CCN4CCCC4)cc3nc3cc(NC(=O)CCN4CCCC4)ccc23)cc1 = 0
• COc1cc(C2c3cc4c(cc3C(OC3OC5COC(C)OC5C(O)C3O)C3COC(=O)C23)OCO4)cc(OC)c1O (stereo not given) + Cc1[nH]c2ccc(F)cc2c1-c1nc2c3cccnc3c3ncccc3c2[nH]1 = 0
• CC1COCCN1c1cc(-c2ccnn2C)c2ccnc(-c3ccn[nH]3)c2n1 (stereo not given) + Cc1cnc(CNC(=O)c2c(=O)c3ccc(N4CCCN(C)CC4)nc3n3c2sc2ccccc23)cn1 = 1
• C#Cc1c(F)ccc2cc(O)cc(-c3ncc4c(N5CC6CCC(C5)N6)nc(OCC56CCCN5CC(F)C6)nc4c3F)c12 (stereo not given) + Cc1cnc(CNC(=O)c2c(=O)c3ccc(N4CCCN(C)CC4)nc3n3c2sc2ccccc23)cn1 = 0
• CC(=O)O[C@H]1C(=O)[C@@]2(C)[C@H]([C@H](OC(=O)c3ccccc3)[C@]3(O)C[C@H](OC(=O)[C@H](O)[C@@H](NC(=O)c4ccccc4)c4ccccc4)C(C)=C1C3(C)C)[C@]1(OC(C)=O)CO[C@@H]1C[C@@H]2O + Cc1cnc(CNC(=O)c2c(=O)c3ccc(N4CCCN(C)CC4)nc3n3c2sc2ccccc23)cn1 = 1
• CC1COCCN1c1cc(-c2ccnn2C)c2ccnc(-c3ccn[nH]3)c2n1 (stereo not given) + CN(C)c1ccc(Nc2c3ccc(NC(=O)CCN4CCCC4)cc3nc3cc(NC(=O)CCN4CCCC4)ccc23)cc1 = 0
• CC(C)n1c(=O)n(C)c2cnc3cc(F)c(-c4ccc(OCCCN5CCCCC5)nc4)cc3c21 + CN(C)c1ccc(Nc2c3ccc(NC(=O)CCN4CCCC4)cc3nc3cc(NC(=O)CCN4CCCC4)ccc23)cc1 = 0
• COc1cccc2c1C(=O)c1c(O)c3c(c(O)c1C2=O)CC(O)(C(=O)CO)CC3OC1CC(N)C(O)C(C)O1 (stereo not given) + CN(C)c1ccc(Nc2c3ccc(NC(=O)CCN4CCCC4)cc3nc3cc(NC(=O)CCN4CCCC4)ccc23)cc1 = 0
• O=C(c1cc(Cc2n[nH]c(=O)c3ccccc23)ccc1F)N1CCN(C(=O)C2CC2)CC1 + CN(C)c1ccc(Nc2c3ccc(NC(=O)CCN4CCCC4)cc3nc3cc(NC(=O)CCN4CCCC4)ccc23)cc1 = 0

Test call for this compound, please: CC1COCCN1c1cc(C2(S(C)(=N)=O)CC2)nc(-c2ccnc3[nH]ccc23)n1 (stereo not given) + CN(C)c1ccc(Nc2c3ccc(NC(=O)CCN4CCCC4)cc3nc3cc(NC(=O)CCN4CCCC4)ccc23)cc1
0

Can you look up the reported call for CCCS(=O)(=O)Nc1ccc(F)c(C(=O)c2c[nH]c3ncc(-c4ccc(Cl)cc4)cc23)c1F + Cc1[nH]c2ccc(F)cc2c1-c1nc2c3cccnc3c3ncccc3c2[nH]1 for me?
0

Recorded call for COc1cc(C2c3cc4c(cc3C(OC3OC5COC(C)OC5C(O)C3O)C3COC(=O)C23)OCO4)cc(OC)c1O (stereo not given) + CN(C)c1ccc(Nc2c3ccc(NC(=O)CCN4CCCC4)cc3nc3cc(NC(=O)CCN4CCCC4)ccc23)cc1 ?
0

Which outcome did this test record for the compound O=c1[nH]cc(F)c(=O)[nH]1 + Cc1cnc(CNC(=O)c2c(=O)c3ccc(N4CCCN(C)CC4)nc3n3c2sc2ccccc23)cn1 ?
0

Query: recorded result category for O=C(c1cc(Cc2n[nH]c(=O)c3ccccc23)ccc1F)N1CCN(C(=O)C2CC2)CC1 + Cc1cnc(CNC(=O)c2c(=O)c3ccc(N4CCCN(C)CC4)nc3n3c2sc2ccccc23)cn1 in this test
0

Recorded call for O=C(NO)c1cnc(N2CCN(S(=O)(=O)c3ccc4ccccc4c3)CC2)nc1 + Cc1cnc(CNC(=O)c2c(=O)c3ccc(N4CCCN(C)CC4)nc3n3c2sc2ccccc23)cn1 ?
1

Dear colleague, could you share the recorded outcome for CC1COCCN1c1cc(C2(S(C)(=N)=O)CC2)nc(-c2ccnc3[nH]ccc23)n1 (stereo not given) + Cc1cnc(CNC(=O)c2c(=O)c3ccc(N4CCCN(C)CC4)nc3n3c2sc2ccccc23)cn1 when you have a moment?
0

Please state the recorded outcome for this compound: CC1COCCN1c1cc(C2(O)CC3CCC(C2)O3)c2cnn(-c3ccn[nH]3)c2n1 (stereo not given) + CN(C)c1ccc(Nc2c3ccc(NC(=O)CCN4CCCC4)cc3nc3cc(NC(=O)CCN4CCCC4)ccc23)cc1
0

Which outcome was entered for the compound C=CCn1c(=O)c2cnc(Nc3ccc(N4CCN(C)CC4)cc3)nc2n1-c1cccc(C(C)(C)O)n1 + Cc1cnc(CNC(=O)c2c(=O)c3ccc(N4CCCN(C)CC4)nc3n3c2sc2ccccc23)cn1 in this test?
0

I'd appreciate the recorded outcome for COc1ncnc(C2CC2)c1-c1ncc2cnn(Cc3ccc(-c4nc(C(F)(F)F)cn4C(C)C)cc3)c2n1 + Cc1cnc(CNC(=O)c2c(=O)c3ccc(N4CCCN(C)CC4)nc3n3c2sc2ccccc23)cn1 from this test.
0
